ASSAY PROCEDURE: protein stability index of a GFP-peptide fusion (yeast GPS) (PSI 1-4); higher = more stable; sorted into four equal gates, so the index is relative within each strain
CONDITION NOTES: doa10∆
Decide by protein stability index: equal to or exceeding 3 means True, less means False.

[[record]]
sequence_input = "NKTKAVDNTVPSTTLFN [YOR098C/NUP1]"
label_value = "False"

[[record]]
sequence_input = "VIDIEIHVLEQDGGIMG [SKI6]"
label_value = "False"

[[record]]
sequence_input = "HKVQTKLTRELEKKFPD [RPS7B]"
label_value = "False"

[[record]]
sequence_input = "IDIDKLIQLGVKPLESS [SRP72]"
label_value = "True"

[[record]]
sequence_input = "MVLEATVLVIDNSEYSR [RPN10]"
label_value = "False"


In plain terms: is recorded protein stability index at least 3 for NEVIDKLKNENTDLKDI [PCI8] ?
False

Now the sequence LASSFVNGFLNLGYCND [RPN1]
True

Subsequent entry: ALDIVCSDFVKILNLEK [NUT1]
False

Same question for KPALGSLGSSSTTASGT [YGR119C/NUP57] please.
True

Try GISMFDYISGISVGLYD [SKI6] next.
False

* * *

ASSAY PROCEDURE: protein stability index of a GFP-peptide fusion (yeast GPS) (PSI 1-4); higher = more stable; sorted into four equal gates, so the index is relative within each strain
CONDITION NOTES: ubr1∆
MEASURED QUANTITY: protein stability index
No unit in the answer, only the number.

Here's what some known entries look like.
[[record]]
sequence_input = "NSSEEDKKKGQNVTSET [ITC1]"
measured_quantity = "protein stability index"
number = 3.29

[[record]]
sequence_input = "PAGFTHKLSNWLFGWND [YDL088C/ASM4]"
measured_quantity = "protein stability index"
number = 2.96

[[record]]
sequence_input = "FHSEISPDSTVNRSVVV [YAR002W/NUP60]"
measured_quantity = "protein stability index"
number = 2.16

[[record]]
sequence_input = "SEDHSFRKIKLRVDEVQ [RPS1A]"
measured_quantity = "protein stability index"
number = 3.22

[[record]]
sequence_input = "NKTAHLSIPGKSTPEGT [SNU114]"
measured_quantity = "protein stability index"
number = 3.01


Find the recorded protein stability index belonging to REYLEEYKSLFVVGVDN [RPP0] and report it.
3.24

Ok, now TEAAFTKLDQVWGSETV [RPL4A]
2.15

* * *

ASSAY PROCEDURE: protein stability index of a GFP-peptide fusion (yeast GPS) (PSI 1-4); higher = more stable; sorted into four equal gates, so the index is relative within each strain
CONDITION NOTES: doa10∆
MEASURED QUANTITY: protein stability index
Enter the number alone.

Given VTFSVMPPKKSWRNITN [SMC4] , state its recorded protein stability index.
2

Record: ALPRKLRRRTASHNVRR [POP1]
2.91

Also NCVNDVLEFCKDYEAKT [POP1] , if possible.
3.2

* * *

Catalogue of sequences with associated protein stability index
ASSAY PROCEDURE: protein stability index of a GFP-peptide fusion (yeast GPS) (PSI 1-4); higher = more stable; sorted into four equal gates, so the index is relative within each strain
CONDITION NOTES: san1∆
Hey, just send me the number, nothing else.

Use the examples below as a reference point.
[[record]]
sequence_input = "KYKLISRIVEIFALCIY [YML103C/NUP188]"
measured_quantity = "protein stability index"
number = 1.86

[[record]]
sequence_input = "ILLEPIYEVDITVHAPL [SNU114]"
measured_quantity = "protein stability index"
number = 2.43

[[record]]
sequence_input = "IEGVVILKKNPDYREEE [RPN1]"
measured_quantity = "protein stability index"
number = 3.1


Proceeding to the next sequence to report its protein stability index.
Give the measured protein stability index of LILAGQVKVKGQLGEMA [YCS4] .
3.12

* * *

ASSAY PROCEDURE: protein stability index of a GFP-peptide fusion (yeast GPS) (PSI 1-4); higher = more stable; sorted into four equal gates, so the index is relative within each strain
CONDITION NOTES: san1∆
Classes are defined on protein stability index with ranges LOW = under 2, MID = from 2 up to 3, HIGH = 3 and over

Answered cases to consult:
[[record]]
sequence_input = "QRGEDDLTFKLADILKA [RPO21]"
label_value = "MID"

[[record]]
sequence_input = "MSSEIAYSNTNTNTENE [SNF11]"
label_value = "MID"

[[record]]
sequence_input = "CVVSTDSTNLSDDAAQF [ECM29]"
label_value = "LOW"

[[record]]
sequence_input = "SSDVDMDDEEWRSKRIE [RPC53]"
label_value = "HIGH"


For the record KSKTSTGKERSKKRKLN [SNM1] , report the class its protein stability index corresponds to.
HIGH

Next: TIKILPENTAMFNPLHE [YMR129W/POM152]
MID

Next record, please: KTITLEVESSDTIDNVK [RPS31]
MID

Could you do the same for DNVDFILSNVDLAMANS [RPB3] , please?
HIGH

Also need KEYENHSGELMRQQSKE [SMC1] , thanks.
MID

Check SRLTLLLRALKTNEESA [PRP8] too.
LOW

Another sequence to look at: IGQSEELSDKEIYTVED [ISW2]
HIGH

Record: LKKRYDLSYNFNVHEVP [YMR129W/POM152]
MID

* * *

ASSAY PROCEDURE: protein stability index of a GFP-peptide fusion (yeast GPS) (PSI 1-4); higher = more stable; sorted into four equal gates, so the index is relative within each strain
CONDITION NOTES: san1∆
MEASURED QUANTITY: protein stability index
Number only, please.

Known protein stability index results, listed for orientation:
[[record]]
sequence_input = "LSIKNSFIINFISNLPN [NUT1]"
measured_quantity = "protein stability index"
number = 1.87

[[record]]
sequence_input = "FREWQYFKLSITSFDQD [POP8]"
measured_quantity = "protein stability index"
number = 2.52

[[record]]
sequence_input = "KTADVKRQYVKQFLTKD [RPL20A]"
measured_quantity = "protein stability index"
number = 2.2

[[record]]
sequence_input = "QDSIDISIKDNKLVMKS [GAL11]"
measured_quantity = "protein stability index"
number = 3.21

[[record]]
sequence_input = "ANALGGLGVNRRILAAA [SSN3]"
measured_quantity = "protein stability index"
number = 1.58


Recorded protein stability index for MSANGFAADGDALVKRF [PRE7] , please?
2.9

Do the same for FKQIKSADCELLGIDAT [RPO31] please
1.42

Param item: VETKLETKVDELRYQSH [DSN1]
3.31

* * *

ASSAY PROCEDURE: protein stability index of a GFP-peptide fusion (yeast GPS) (PSI 1-4); higher = more stable; sorted into four equal gates, so the index is relative within each strain
CONDITION NOTES: doa10∆
Overview of reported protein stability index across a group of sequences:

[[record]]
sequence_input = "LPKAWISLAVEGEPVNS [COR1]"
measured_quantity = "protein stability index"
result = 1.38

[[record]]
sequence_input = "LNISGEFFRNKLKYHDF [RPL16A]"
measured_quantity = "protein stability index"
result = 1.32

[[record]]
sequence_input = "NSSTSPAPSIPSTGFKF [YLR335W/NUP2]"
measured_quantity = "protein stability index"
result = 2.38

[[record]]
sequence_input = "SRMFEEVSGSIQYKKEY [SMC1]"
measured_quantity = "protein stability index"
result = 3.09


# query: protein stability index of entry DSSSNTYRSRAQQVPPY [SIN4]
2.89

* * *

ASSAY PROCEDURE: protein stability index of a GFP-peptide fusion (yeast GPS) (PSI 1-4); higher = more stable; sorted into four equal gates, so the index is relative within each strain
CONDITION NOTES: san1∆
Hi, to clarify the labels: Satisfied covers protein stability index from 3 upward, Not satisfied covers anything below 3.

[[record]]
sequence_input = "SENAPSASSKEFNFTNL [YAR002W/NUP60]"
label_value = "Not satisfied"

[[record]]
sequence_input = "MNTTLGSIGSRKYSFNY [YAR002W/NUP60]"
label_value = "Not satisfied"

[[record]]
sequence_input = "ETITTKRVPNPNFLGNC [SWP82]"
label_value = "Not satisfied"

[[record]]
sequence_input = "AEHKYMPYTINELLEMV [BRR2]"
label_value = "Not satisfied"


Given the entry IRKSETSGRYASYRICM [RPB5] , answer whether its protein stability index meets or surpasses 3.
Not satisfied

Please do the same for ELTAQGYDPALLNILSG [RPN2] as well.
Not satisfied

# repeat for RVRNKDIRKFLDGIYVS [RPL9A]
Not satisfied

Lookup FVNGVWHGVHRNPARLM [RPB2]
Satisfied

Entry NKLNFIVDDKQEMIDIL [DIB1] please
Not satisfied

Next sequence up: LEEHKNHLDELQKKFVT [SMC1]
Not satisfied

Can you check HFENAKVIDLDTKLKAH [YIL149C/MLP2] next?
Not satisfied

Then what about the sequence MSVPAIAPRRKRLADGL [DIS3] ?
Satisfied
